biological target: HSP70/A18 interaction (Homo sapiens, UniProt P0DMV8); assay: AptaScreen high-throughput yeast two-hybrid dual luminescence screening of A18/HSP70 association; details: dose-response, inhibition of A18 binding to HSP70
Sequence (P0DMV8 whole entry): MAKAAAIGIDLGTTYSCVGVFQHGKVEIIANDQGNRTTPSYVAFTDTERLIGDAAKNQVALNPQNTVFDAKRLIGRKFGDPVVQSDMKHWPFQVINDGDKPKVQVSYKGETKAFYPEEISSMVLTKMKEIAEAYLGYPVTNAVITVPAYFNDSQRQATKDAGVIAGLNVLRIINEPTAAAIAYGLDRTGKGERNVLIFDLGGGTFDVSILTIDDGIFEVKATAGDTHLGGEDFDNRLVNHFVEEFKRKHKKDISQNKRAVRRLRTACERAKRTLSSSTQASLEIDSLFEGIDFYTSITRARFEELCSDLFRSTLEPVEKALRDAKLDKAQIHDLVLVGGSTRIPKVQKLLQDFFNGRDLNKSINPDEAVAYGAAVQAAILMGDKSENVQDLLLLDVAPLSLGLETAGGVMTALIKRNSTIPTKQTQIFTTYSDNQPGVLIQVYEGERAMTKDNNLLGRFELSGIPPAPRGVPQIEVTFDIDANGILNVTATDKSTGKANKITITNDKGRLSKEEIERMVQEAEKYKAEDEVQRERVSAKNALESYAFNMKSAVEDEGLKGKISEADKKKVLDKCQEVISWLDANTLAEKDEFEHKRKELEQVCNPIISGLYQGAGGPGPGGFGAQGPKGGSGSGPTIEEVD
pIC50: −log10 of the molar value.
Test readout: pIC50

A = O=C1N=C(N2CCCCC2)S/C1=C\c1ccccc1F
B = CCOc1ccc(C)cc1S(=O)(=O)n1nnc2ccccc21
Which has the higher pIC50, A or B ? Write down the label attached to your selection.
B
(B: 6.70, A: 4.71)
